Where do the numbers come from? From the RNAGym collection of RNA variant scans (doi:10.7554/elife.90254).

B1: LINE1-mini (parent)
chain: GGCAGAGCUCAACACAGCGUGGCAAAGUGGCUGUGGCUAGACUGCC

# Variants of: B1
# PROTOCOL_DESCRIPTION: self-cleavage, relative activity (ratio to wild type); higher = more cleavage; in vitro, sequencing; the parent is a self-cleaving ribozyme
Entry flag: true if self-cleavage reaches 0.08; false if it does not.

Recorded results for 5 variants are shown here.
| MUTANT | CLASSIFICATION |
| --- | --- |
| A11U U32C | false |
| G2U C31A | false |
| A4C C15G | false |
| U20G G22C | true |
| G40C G44C | false |

Say whether A11G C18G shows self-cleavage of 0.08 or more.
false

Say whether G30C G36C shows self-cleavage of 0.08 or more.
false
